Where these numbers come from: ChEMBL document CHEMBL4431390

Measured target: E3 ubiquitin-protein ligase XIAP (Homo sapiens)
Sequence (P98170 whole entry, the tested form may be a part): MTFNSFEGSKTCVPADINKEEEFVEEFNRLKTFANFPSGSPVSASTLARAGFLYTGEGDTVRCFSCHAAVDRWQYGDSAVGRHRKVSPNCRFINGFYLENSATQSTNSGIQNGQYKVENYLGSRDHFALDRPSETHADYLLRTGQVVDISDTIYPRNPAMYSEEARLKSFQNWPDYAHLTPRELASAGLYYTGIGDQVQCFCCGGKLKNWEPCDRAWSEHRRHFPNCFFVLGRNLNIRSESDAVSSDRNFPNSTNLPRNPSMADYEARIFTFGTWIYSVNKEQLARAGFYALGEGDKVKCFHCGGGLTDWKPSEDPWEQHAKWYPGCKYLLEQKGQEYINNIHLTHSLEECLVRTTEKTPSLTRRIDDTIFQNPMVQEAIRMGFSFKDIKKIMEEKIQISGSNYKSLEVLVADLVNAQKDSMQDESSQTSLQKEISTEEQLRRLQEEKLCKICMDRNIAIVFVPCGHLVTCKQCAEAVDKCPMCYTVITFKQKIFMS
Test summary: Binding affinity to XIAP BIR3 domain in Smac mimetic-sensitive human MDA-MB-231 cells assessed as increase in cleaved caspase-3 expression at 5 uM after 24 hrs by Western blot analysis
Type: cell-based
Activity calls are given as the source filed them. The rule behind the calls is not given here.
Assay readout: Activity

These solved cases illustrate the format of a correct answer.
Smiles entry	Measured target	Activity
CC[C@H](NC)C(=O)N[C@@H]1C(=O)N2[C@@H](CC[C@@H]1CNC(=O)c1ccccc1)CC[C@H]2C(=O)N[C@H](C(=O)N(Cc1ccccn1)Cc1ccccn1)c1ccccc1	E3 ubiquitin-protein ligase XIAP (Homo sapiens)	Active
CC[C@H](NC)C(=O)N[C@@H]1C(=O)N2[C@@H](CC[C@@H]1CNC(=O)c1ccccc1)CC[C@H]2C(=O)N[C@H](C(=O)NCCN(Cc1ccccn1)Cc1ccccn1)c1ccccc1	E3 ubiquitin-protein ligase XIAP (Homo sapiens)	Active
CC[C@H](NC)C(=O)N[C@@H]1C(=O)N2[C@@H](CC[C@@H]1CNC(=O)c1ccccc1)CC[C@H]2C(=O)N[C@@H](C(=O)NCCN(Cc1ccccn1)Cc1ccccn1)c1ccccc1	E3 ubiquitin-protein ligase XIAP (Homo sapiens)	inactive
CC[C@H](NC)C(=O)N[C@@H]1C(=O)N2[C@@H](CC[C@@H]1CNC(=O)c1ccccc1)CC[C@H]2C(=O)NC(c1ccccc1)c1ccccc1	E3 ubiquitin-protein ligase XIAP (Homo sapiens)	Active
C=CCc1cccc(/C=N/NC(=O)[C@@H](NC(=O)[C@@H]2CC[C@@H]3CC[C@H](CCNC(=O)c4ccccc4)[C@H](NC(=O)[C@H](CC)NC)C(=O)N32)c2ccccc2)c1O	E3 ubiquitin-protein ligase XIAP (Homo sapiens)	Active
CC[C@H](NC)C(=O)N[C@@H]1C(=O)N2[C@@H](CC[C@@H]1CNC(=O)c1ccccc1)CC[C@H]2C(=O)N(Cc1ccccn1)Cc1ccccn1	E3 ubiquitin-protein ligase XIAP (Homo sapiens)	inactive
C=CCc1cccc(/C=N/NC(=O)CN2CCN(Cc3ccccc3)CC2)c1O	E3 ubiquitin-protein ligase XIAP (Homo sapiens)	inactive

Please look at the following compound next.
Ask: Could you tell me which Activity is on file for CC[C@H](NC)C(=O)N[C@@H]1C(=O)N2[C@@H](CC[C@@H]1CNC(=O)c1ccccc1)CC[C@H]2C(=O)N[C@@H](C(=O)N(Cc1ccccn1)Cc1ccccn1)c1ccccc1 ?
Result: inactive
